Source: patent US10112935B2

# assaySystem: GST-tagged human ROCK2 catalytic domain 1-553 (Homo sapiens (Human), UniProt O75116)
# Sequence (O75116 1-553): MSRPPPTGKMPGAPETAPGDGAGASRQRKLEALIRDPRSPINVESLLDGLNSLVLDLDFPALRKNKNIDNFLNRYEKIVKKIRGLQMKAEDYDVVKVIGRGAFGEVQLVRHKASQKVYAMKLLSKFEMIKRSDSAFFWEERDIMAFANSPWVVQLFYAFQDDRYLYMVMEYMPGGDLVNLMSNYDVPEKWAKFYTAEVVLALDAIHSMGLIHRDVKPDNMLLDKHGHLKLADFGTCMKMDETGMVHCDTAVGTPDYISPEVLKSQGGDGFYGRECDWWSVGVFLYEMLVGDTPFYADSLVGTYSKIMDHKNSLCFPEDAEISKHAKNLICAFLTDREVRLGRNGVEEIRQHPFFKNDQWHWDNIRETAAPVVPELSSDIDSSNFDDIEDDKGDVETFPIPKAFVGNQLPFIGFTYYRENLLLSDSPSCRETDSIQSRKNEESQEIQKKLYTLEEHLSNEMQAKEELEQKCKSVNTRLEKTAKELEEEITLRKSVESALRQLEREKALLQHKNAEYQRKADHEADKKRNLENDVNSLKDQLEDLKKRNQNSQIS
# protocolSummary: Inhibition of Rho-associated protein kinase isoform 2 (LANCE Ultra ULight-CREBtide FRET kinase assay)
# Assay type: biochemical
# measurementContext: selectivity ROCK2 vs ROCK1
Selectivity for ROCK2 over ROCK1 (IC50 ROCK1 / IC50 ROCK2): recorded values
quantityKind: Selectivity for ROCK2 over ROCK1 (IC50 ROCK1 / IC50 ROCK2)

O=C(Cc1cnccn1)Nc1cccc(-c2nnc(Nc3ccc4[nH]ncc4c3Cl)s2)c1 [Example 35BP]
>5
CC(C)C(=O)Nc1cccc(-c2nnc(Nc3ccc4[nH]ncc4c3Cl)s2)c1 [Example 35V]
>5
Clc1c(Nc2nnc(-c3cccc(-c4ncco4)c3)s2)ccc2[nH]ncc12 [Example 46O]
>100
CN(CC(O)CO)C(=O)c1cccc(-c2nnc(Nc3ccc4[nH]ncc4c3)s2)c1 (stereo not shown)
<5
CC(=O)Nc1cc(CC(=O)O)cc(-c2nnc(Nc3ccc4[nH]ncc4c3Cl)s2)c1 [Example 75S]
>5
CN1CCN(C(=O)Nc2ccc(-c3nnc(Nc4ccc5[nH]ncc5c4Cl)s3)cc2)CC1 [Example 75D]
>5
Cn1cc(C(=O)Nc2cccc(-c3nnc(Nc4ccc5[nH]ncc5c4)s3)c2)cn1
>100

====

# assaySystem: GST-tagged human ROCK2 catalytic domain 1-553 (Homo sapiens (Human))
# protocolSummary: Inhibition of Rho-associated protein kinase isoform 2 (LANCE Ultra ULight-CREBtide FRET kinase assay)
# Type: biochemical
# measurementContext: selectivity ROCK2 vs ROCK1
Each entry below lists one item and its recorded Selectivity for ROCK2 over ROCK1 (IC50 ROCK1 / IC50 ROCK2) value.
quantityKind: Selectivity for ROCK2 over ROCK1 (IC50 ROCK1 / IC50 ROCK2)

Cc1coc(-c2cccc(-c3nnc(Nc4ccc5[nH]ncc5c4Cl)s3)c2)n1 [Example 46C]
>5
Clc1c(Nc2nnc(-c3cncc(-c4ncco4)c3)s2)ccc2[nH]ncc12 [Example 46P]
>100
O=C(Cc1ccon1)Nc1cccc(-c2nnc(Nc3ccc4[nH]ncc4c3Cl)s2)c1 [Example 35BG]
>100
O=C(Cc1ncc[nH]1)Nc1cccc(-c2nnc(Nc3ccc4[nH]ncc4c3Cl)s2)c1 [Example 35BD]
>100
NCCS(=O)(=O)Nc1cccc(-c2nnc(Nc3ccc4[nH]ncc4c3)s2)c1
<5
Cn1cc(CC(=O)Nc2cccc(-c3nnc(Nc4ccc5[nH]ncc5c4Cl)s3)c2)cn1 [Example 35BH]
>100
O=C(Nc1cccc(-c2nnc(Nc3ccc4[nH]ncc4c3)s2)c1)c1cnn(CC(O)CO)c1 (stereo not drawn) [Example 35CG]
>5
CCc1c(Nc2nnc(-c3cccc(NC(C)=O)c3)s2)ccc2[nH]ncc12 [Example 75C]
>5
CC1CCN(C(=O)Nc2cccc(-c3nnc(Nc4ccc5[nH]ncc5c4)s3)c2)C1 (stereo not drawn)
>5
Cc1coc(-c2cc(F)cc(-c3nnc(Nc4ccc5[nH]ncc5c4Cl)s3)c2)n1 [Example 46D]
>100
Cn1cc(C(=O)Nc2cc(F)c(F)c(-c3nnc(Nc4ccc5[nH]ncc5c4)s3)c2)cn1 [Example 35BZ]
>100
Nc1cncc(-c2nnc(Nc3ccc4[nH]ncc4c3)s2)c1.O=C(O)C(F)(F)F [Example 35CS]
<5

====

# assaySystem: GST-tagged human ROCK2 catalytic domain 1-553 (Homo sapiens (Human))
# protocolSummary: Inhibition of Rho-associated protein kinase isoform 2 (LANCE Ultra ULight-CREBtide FRET kinase assay)
# Type: biochemical
# measurementContext: 30 μM was the highest concentration analyzed
quantityKind: IC50

CC(=O)Nc1cc(C(=O)NCC(O)CO)cc(-c2nnc(Nc3ccc4[nH]ncc4c3Cl)s2)c1 (centres unmarked) [Example 48W]
< 1 µM
Clc1c(Nc2nnc(-c3cccc4c3OCCO4)s2)ccc2[nH]ncc12 [Example 75E]
> 30 µM
CC(=O)Nc1cc(C(=O)N2CCC(C(=O)O)CC2)cc(-c2nnc(Nc3ccc4[nH]ncc4c3Cl)s2)c1 [Example 48Q]
< 1 µM
O=C(Cc1ncc[nH]1)Nc1cccc(-c2nnc(Nc3ccc4[nH]ncc4c3Cl)s2)c1 [Example 35BD]
< 1 µM
O=C1Cc2cccc(-c3nnc(Nc4ccc5[nH]ncc5c4Cl)s3)c2N1 [Example 56E]
< 1 µM
Cc1ccc(CC(=O)Nc2cccc(-c3nnc(Nc4ccc5[nH]ncc5c4Cl)s3)c2)nc1 [Example 35AO]
< 1 µM
Cn1cc(C(=O)Nc2cccc(-c3nnc(Nc4ccc5[nH]nc(F)c5c4)s3)c2)cn1 [Example 35BW]
> 30 µM
Clc1c(Nc2nnc(-c3cccc(-c4nccs4)c3)s2)ccc2[nH]ncc12 [Example 46I]
< 1 µM
c1cc2[nH]ncc2cc1Nc1nnc(N2CCNCC2)s1
1 to 15 µM
NCCn1cc(C(=O)Nc2cc(-c3nnc(Nc4ccc5[nH]ncc5c4)s3)ccn2)cn1.O=C(O)C(F)(F)F [Example 35BV]
< 1 µM
c1cc(-c2cnco2)cc(-c2nnc(Nc3ccc4[nH]ncc4c3)s2)c1
> 30 µM

====

# assaySystem: GST-tagged human ROCK2 catalytic domain 1-553 (Homo sapiens (Human))
# protocolSummary: Inhibition of Rho-associated protein kinase isoform 2 (LANCE Ultra ULight-CREBtide FRET kinase assay)
# Format: biochemical
# measurementContext: selectivity ROCK2 vs ROCK1
quantityKind: Selectivity for ROCK2 over ROCK1 (IC50 ROCK1 / IC50 ROCK2)

CC(=O)Nc1cc(-c2nnc(Nc3ccc4[nH]ncc4c3Cl)s2)ccn1.O=C(O)C(F)(F)F [Example 35AE]
<5
Clc1c(Nc2nnc(-c3cccn4cc(-c5ccc(Br)cc5)nc34)s2)ccc2[nH]ncc12 [Example 52E]
>100
Clc1c(Nc2nnc(-c3cccc(-c4nccs4)c3)s2)ccc2[nH]ncc12 [Example 46I]
>100
OC1(c2cccc(-c3nnc(Nc4ccc5[nH]ncc5c4Cl)s3)c2)COC1 [Example 35AJ]
>75
Nc1cccc(-c2nnc(Nc3ccc4[nH]ncc4c3)s2)c1 [Example A-47]
>5
Cc1cnoc1C(=O)Nc1cccc(-c2nnc(Nc3ccc4[nH]ncc4c3)s2)c1 [Example A-44]
>100

====

# assaySystem: GST-tagged human ROCK1 catalytic domain 1-477 (Homo sapiens (Human))
# protocolSummary: Inhibition of Rho-associated protein kinase isoform 1 (LANCE Ultra ULight-CREBtide FRET kinase assay)
# Assay type: biochemical
# measurementContext: 30 μM was the highest concentration analyzed
quantityKind: IC50

Cc1cc(CC(=O)Nc2cccc(-c3nnc(Nc4ccc5[nH]ncc5c4Cl)s3)c2)on1 [Example 35BN]
< 1 µM
CN(C)Cc1cc(-c2ncco2)cc(-c2nnc(Nc3ccc4[nH]ncc4c3Cl)s2)c1 [Example 75P]
1 to 15 µM
Cc1cccc(-c2cccc(-c3nnc(Nc4ccc5[nH]ncc5c4Cl)s3)c2)n1 [Example 75R]
> 30 µM
CN1CCN(c2cc(-c3nnc(Nc4ccc5[nH]ncc5c4Cl)s3)ccn2)C1=O
< 1 µM
O=[N+]([O-])c1cccc(-c2nnc(Nc3ccc4[nH]ncc4c3)s2)c1 [Example 75O]
1 to 15 µM
CC(=O)Nc1cc(CN2CCOCC2)cc(-c2nnc(Nc3ccc4[nH]ncc4c3Cl)s2)c1.O=C(O)C(F)(F)F [Example 48D]
1 to 15 µM
Clc1c(Nc2nnc(-c3cncc(-c4ncco4)c3)s2)ccc2[nH]ncc12 [Example 46P]
> 30 µM
CCS(=O)(=O)Nc1cncc(-c2nnc(Nc3ccc4[nH]ncc4c3)s2)c1.O=C(O)C(F)(F)F [Example 35CN]
1 to 15 µM
CN1CCN(C(=O)Nc2ccc(-c3nnc(Nc4ccc5[nH]ncc5c4Cl)s3)cc2)CC1 [Example 75D]
< 1 µM
Cc1ccc(CC(=O)Nc2cccc(-c3nnc(Nc4ccc5[nH]ncc5c4Cl)s3)c2)nc1 [Example 35AO]
> 30 µM
O=C(O)COc1cccc(-c2nnc(Nc3ccc4[nH]ncc4c3)s2)c1 [Example A-22]
1 to 15 µM

====

# assaySystem: GST-tagged human ROCK1 catalytic domain 1-477 (Homo sapiens (Human), UniProt Q13464)
# Sequence (Q13464 1-477): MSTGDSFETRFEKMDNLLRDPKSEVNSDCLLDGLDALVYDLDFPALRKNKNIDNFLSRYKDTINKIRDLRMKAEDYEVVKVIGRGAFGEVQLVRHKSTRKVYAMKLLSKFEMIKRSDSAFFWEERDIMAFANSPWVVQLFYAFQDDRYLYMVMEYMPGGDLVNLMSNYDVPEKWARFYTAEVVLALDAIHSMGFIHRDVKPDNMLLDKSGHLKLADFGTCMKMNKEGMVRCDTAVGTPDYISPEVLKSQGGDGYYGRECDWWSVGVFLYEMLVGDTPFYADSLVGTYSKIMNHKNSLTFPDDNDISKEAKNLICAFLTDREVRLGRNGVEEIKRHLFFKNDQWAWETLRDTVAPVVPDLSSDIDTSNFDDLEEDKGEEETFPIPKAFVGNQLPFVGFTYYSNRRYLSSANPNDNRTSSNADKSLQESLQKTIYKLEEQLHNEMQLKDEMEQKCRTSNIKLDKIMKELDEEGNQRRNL
# protocolSummary: Inhibition of Rho-associated protein kinase isoform 1 (LANCE Ultra ULight-CREBtide FRET kinase assay)
# Format: biochemical
# measurementContext: 30 μM was the highest concentration analyzed
quantityKind: IC50

COc1cccc(C(=O)Nc2cccc(-c3nnc(Nc4ccc5[nH]ncc5c4Cl)s3)c2)c1 [Example 35BT]
< 1 µM
O=C(Nc1cccc(-c2nnc(Nc3ccc4[nH]ncc4c3Cl)s2)c1)C1CCNCC1 [Example 35AC]
1 to 15 µM
O=C(Cc1cccc(C(F)(F)F)n1)Nc1cccc(-c2nnc(Nc3ccc4[nH]ncc4c3Cl)s2)c1 [Example 35AI]
< 1 µM
Cn1cc(CC(=O)Nc2cccc(-c3nnc(Nc4ccc5[nH]ncc5c4Cl)s3)c2)cn1 [Example 35BH]
< 1 µM
Nc1cccc(-c2nnc(Nc3ccc4[nH]ncc4c3)s2)c1
> 30 µM
Cc1cnoc1C(=O)Nc1cccc(-c2nnc(Nc3ccc4[nH]ncc4c3)s2)c1
> 30 µM
c1cc2[nH]ncc2cc1Nc1nnc(C2CNCCN2)s1 (stereo not shown)
1 to 15 µM

====

# assaySystem: GST-tagged human ROCK1 catalytic domain 1-477 (Homo sapiens (Human))
# protocolSummary: Inhibition of Rho-associated protein kinase isoform 1 (LANCE Ultra ULight-CREBtide FRET kinase assay)
# Type: biochemical
# measurementContext: 30 μM was the highest concentration analyzed
quantityKind: IC50

O=C(Nc1cccc(-c2nnc(Nc3ccc4[nH]ncc4c3)s2)c1)c1cccnc1
> 30 µM
Cn1cc(C(=O)Nc2cncc(-c3nnc(Nc4ccc5[nH]ncc5c4Cl)s3)c2)cn1 [Example 35BU]
< 1 µM
CC(=O)Nc1cc(-c2nnc(Nc3ccc4[nH]ncc4c3Cl)s2)ccc1C(F)(F)F [Example 48O]
> 30 µM
O=C(Nc1cccc(-c2nnc(Nc3ccc4[nH]ncc4c3Cl)s2)c1)c1cc(O)cc(O)c1 [Example 35AS]
< 1 µM
CN(C)CC(=O)Nc1cncc(-c2nnc(Nc3ccc4[nH]ncc4c3)s2)c1
1 to 15 µM
CC(C)NC(=O)COc1cccc(-c2nnc(Nc3ccc4[nH]ncc4c3)s2)c1 [Example A-23]
> 30 µM
CC(C(=O)Nc1cc(-c2nnc(Nc3ccc4[nH]ncc4c3Cl)s2)ccn1)c1ccc(F)cc1 (centres unmarked)
< 1 µM
O=C(Cc1cnccn1)Nc1cccc(-c2nnc(Nc3ccc4[nH]ncc4c3Cl)s2)c1 [Example 35BP]
< 1 µM
NCCn1cc(C(=O)Nc2cc(-c3nnc(Nc4ccc5[nH]ncc5c4)s3)ccn2)cn1.O=C(O)C(F)(F)F [Example 35BV]
< 1 µM
CC1(C(=O)Nc2cccc(-c3nnc(Nc4ccc5[nH]ncc5c4Cl)s3)c2)CCCCC1 [Example 35L]
1 to 15 µM
Clc1c(Nc2nnc(-c3cccn4cc(-c5ccc(Br)cc5)nc34)s2)ccc2[nH]ncc12 [Example 52E]
> 30 µM
NCc1cncc(C(=O)Nc2cccc(-c3nnc(Nc4ccc5[nH]ncc5c4)s3)c2)c1.O=C(O)C(F)(F)F [Example 35CF]
1 to 15 µM
c1cnc(-c2nnc(Nc3ccc4[nH]ncc4c3)s2)cn1
> 30 µM
CN1CC(C(=O)Nc2cccc(-c3nnc(Nc4ccc5[nH]ncc5c4Cl)s3)c2)C1 [Example 35X]
1 to 15 µM
Cc1cccc(CNC(=O)c2cccc(-c3nnc(Nc4ccc5[nH]ncc5c4Cl)s3)c2)n1 [Example 75G]
< 1 µM
CC(=O)Nc1cc(CN2CCN(C)CC2)cc(-c2nnc(Nc3ccc4[nH]ncc4c3Cl)s2)c1.O=C(O)C(F)(F)F [Example 48B]
1 to 15 µM
COc1cccc(-c2nnc(N(CCO)c3ccc4[nH]ncc4c3)s2)c1 [Example 54E]
15 to 30 µM
COc1cccc(-c2cccc(-c3nnc(Nc4ccc5[nH]ncc5c4Cl)s3)c2)n1 [Example 46H]
> 30 µM
CC1CCN(C(=O)Nc2cccc(-c3nnc(Nc4ccc5[nH]ncc5c4)s3)c2)C1 (centres unmarked)
< 1 µM
COc1ccc(NC(C)=O)cc1-c1nnc(Nc2ccc3[nH]ncc3c2Cl)s1 [Example 48J]
< 1 µM
N[C@@H](Cc1ccccc1)C(=O)Nc1cccc(-c2nnc(Nc3ccc4[nH]ncc4c3Cl)s2)c1 [Example 35AV]
1 to 15 µM
Cn1c(C2CC2)nc2c(-c3nnc(Nc4ccc5[nH]ncc5c4)s3)cccc21 [Example 56G]
> 30 µM
O=C(Cc1ccccn1)Nc1cccc(-c2nnc(Nc3ccc4[nH]ncc4c3Cl)s2)c1 [Example 35BM]
> 30 µM
CCn1cc(C(=O)Nc2cccc(-c3nnc(Nc4ccc5[nH]ncc5c4)s3)c2)cn1
< 1 µM
O=C(Nc1cccc(-c2nnc(Nc3ccc4[nH]ncc4c3)s2)c1)c1c[nH]cn1
> 30 µM
Clc1c(Nc2nnc(-c3cccc4c3ncn4CCN3CCOCC3)s2)ccc2[nH]ncc12 [Example 75V]
> 30 µM
